Data provenance: ChEMBL document CHEMBL3526022

Test: Systemic clearance in human at 4 mg, po twice daily for 8 days
Assay type: ADME, organism-based
Conditions: in vivo
QUANTITY_NAME: CL/F

SMILES_INPUT	QUANTITY_NAME	MEASURED_RESULT
Cc1ccc(O)c([C@H](CCN(C(C)C)C(C)C)c2ccccc2)c1	CL/F	44 mL/min/kg

###

Assay: Systemic clearance in psychiatric patient treated with clozapine
Assay type: ADME, organism-based
Settings: human, in vivo
QUANTITY_NAME: clearance

SMILES_INPUT	MEASURED_RESULT
Clc1ccc2c(c1)N=C(N1CCNCC1)c1ccccc1N2	0.6 mL/min/kg

###

Assay: Fraction unbound in human treated with propranolol
Type: ADME, organism-based
Settings: in vivo
Structures can show the parent of a compound that is named as a salt.
QUANTITY_NAME: fraction unbound

MOLECULE	MEASURED_RESULT
CC(C)NCC(O)COc1ccc(O)c2ccccc12 (stereo unspecified) [4-HYDROXYPROPRANOLOL SULFATE]	0.26

###

Assay: Systemic clearance in human at 120 mg, po
Type: ADME, organism-based
Conditions: in vivo

SMILES_INPUT	MEASUREMENT_UNIT	CL/F
COc1ccc([C@@H]2Sc3ccccc3N(CCN(C)C)C(=O)[C@@H]2OC(C)=O)cc1	mL/min/kg	12

###

Assay: Fraction unbound in healthy human treated with chlorpromazine at 10 mg, iv bolus dose and 25, 50 and 100 mg, po
Assay type: ADME, organism-based
Details: in vivo

COMPOUND	fraction unbound
CN(C)CCCN1c2ccc(O)cc2Sc2ccc(Cl)cc21 [7-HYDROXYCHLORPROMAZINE]	0.015

###

Test: Systemic clearance in healthy human treated with chlorpromazine at 10 mg, iv bolus dose and 25, 50 and 100 mg, po
Type: ADME, organism-based
Conditions: in vivo
QUANTITY_NAME: clearance

COMPOUND	MEASURED_RESULT
CN(C)CCCN1c2ccc(O)cc2Sc2ccc(Cl)cc21 [7-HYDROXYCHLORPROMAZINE]	0.366 L/h/kg

###

Test: physchem
Recorded measurements of pKa, one per entry

COMPOUND	pKa
Cc1ncc2n1-c1ccc(Cl)cc1C(c1ccccc1F)=NC2	13.6
CN(CCOc1ccc(CC2SC(=O)NC2=O)cc1)c1ccccn1 (stereo not drawn)	10.3
O=C1CC2(CCCC2)CC(=O)N1CCCCN1CCN(c2ncccn2)CC1	12.5
O=C(C1CCCCC1)N1CC(=O)N2CCc3ccccc3C2C1 (stereo not drawn)	15
COc1ccnc(C[S+]([O-])c2nc3ccc(OC(F)F)cc3[nH]2)c1OC (stereo not drawn)	7.69
C[C@H](NC(=O)C(C)(C)Oc1ccc(C(F)(F)F)cn1)[C@@H](Cc1ccc(Cl)cc1)c1cccc(C#N)c1	15.1
N#CC[C@H](C1CCCC1)n1cc(-c2ncnc3[nH]ccc23)cn1	14.9
O=C(O[C@@H]1C[C@@H]2C[C@H]3C[C@H](C1)N2CC3=O)c1c[nH]c2ccccc12	14.6
C#C[C@]1(O)CC[C@H]2[C@@H]3[C@H](C)CC4=C(CCC(=O)C4)[C@H]3CC[C@@]21C	15
COc1ccc(CCN2CCC(Nc3nc4ccccc4n3Cc3ccc(F)cc3)CC2)cc1	10.1
CNCC[C@@H](Oc1ccccc1C)c1ccccc1	10.3
COc1ccc(-n2nc(C(N)=O)c3c2C(=O)N(c2ccc(N4CCCCC4=O)cc2)CC3)cc1	8.56
CC(C)C(=O)Nc1ccc([N+](=O)[O-])c(C(F)(F)F)c1 [FLUTAMIDE]	12.9
Cc1c(OCC(F)(F)F)ccnc1C[S+]([O-])c1nc2ccccc2[nH]1 (stereo not drawn)	11.2
CN1CC(=O)N2[C@H](c3ccc4c(c3)OCO4)c3[nH]c4ccccc4c3C[C@@H]2C1=O	9.87
O=C(NCC1CCCCN1)c1cc(OCC(F)(F)F)ccc1OCC(F)(F)F (stereo not drawn) [FLECAINIDE]	9.28
CCc1ccc(CCOc2ccc(CC3SC(=O)NC3=O)cc2)nc1 (stereo not drawn)	13.7
Clc1ccc2c(c1)C(N1CCNCC1)=Nc1ccccc1O2	11.2

###

Experiment: physchem
# reported pKa; entries follow

SMILES_INPUT	pKa
COc1ccc2c(c1)[C@]13CCCC[C@@H]1[C@H](C2)N(C)CC3	10.1
Cc1c(O)cccc1C(=O)N[C@@H](CSc1ccccc1)[C@H](O)CN1C[C@H]2CCCC[C@H]2C[C@H]1C(=O)NC(C)(C)C	8.57
CCc1cc2c(cc1CC)CC(NC[C@H](O)c1ccc(O)c3[nH]c(=O)ccc13)C2	14.6
Cc1ccc(-c2cc(C(F)(F)F)nn2-c2ccc(S(N)(=O)=O)cc2)cc1	14.2
NC(=O)C(c1ccccc1)(c1ccccc1)[C@@H]1CCN(CCc2ccc3c(c2)CCO3)C1	13.5
CCc1nn(CCCN2CCN(c3cccc(Cl)c3)CC2)c(=O)n1CCOc1ccccc1	13.8

###

Test: physchem
Answer false if pKa is under 10, and true if it is 10 or more.

COMPOUND	CLASS_ASSIGNMENT
CCn1cc(C(=O)O)c(=O)c2ccc(C)nc21	true
Clc1ccc2c(c1)CCc1cccnc1C2=C1CCNCC1	false
COc1ccccc1OCC(O)CN1CCN(CC(=O)Nc2c(C)cccc2C)CC1 (stereo unspecified)	false
CN(Cc1cc(Br)cc(Br)c1N)C1CCCCC1	true
Fc1ccc([C@@H]2CCNC[C@H]2COc2ccc3c(c2)OCO3)cc1	true
O[C@H](CNC[C@@H](O)[C@H]1CCc2cc(F)ccc2O1)[C@@H]1CCc2cc(F)ccc2O1 (relative stereo)	true
